- System: Staphylococcus epidermidis
- Method description: standard microtiter assay, minimum inhibitory concentration
- Assay type: cell-based
- Measurement conditions: Test Organism 11, strain of Staphylococcus epidermidis
For each record, write down the corresponding minimum inhibitory concentration of antibiotic, Test Organism 11.
Numbers only, in µg/mL.

Field: example entries. Status: answers known.
GET /values?readout=minimum inhibitory concentration of antibiotic, Test Organism 11&system=Staphylococcus epidermidis&item= CCCCCCCCCC(=O)NC1C(Oc2c3cc4cc2Oc2c(Cl)cc(cc2Cl)C(O)C2NC(=O)C(NC(=O)C4NC(=O)C4NC(=O)C(NC(=O)C(NC)c5ccc(O)c(c5)Oc5cc(O)c(Cl)c4c5)C(O)c4ccc(c(Cl)c4)O3)c3ccc(O)c(c3)-c3c(OC4OC(CO)C(O)C(O)C4O)cc(O)cc3C(C(=O)NCCN)NC2=O)OC(C(=O)NCCN)C(O)C1O (stereo not shown) [Compound 2m, Ardacin A-di-(2-aminoethylamide)]
800

GET /values?readout=minimum inhibitory concentration of antibiotic, Test Organism 11&system=Staphylococcus epidermidis&item= CN[C@H](CC(C)C)C(=O)N[C@H]1C(=O)N[C@@H](CC(N)=O)C(=O)N[C@H]2C(=O)N[C@H]3C(=O)N[C@H](C(=O)N[C@H](C(=O)O)c4cc(O)cc(O)c4-c4cc3ccc4O)[C@H](O)c3ccc(c(Cl)c3)Oc3cc2cc(c3O[C@@H]2O[C@H](CO)[C@@H](O)[C@H](O)[C@H]2O[C@H]2C[C@](C)(N)[C@H](O)[C@H](C)O2)Oc2ccc(cc2Cl)[C@H]1O [Vancomycin, reference compound]
3100

GET /values?readout=minimum inhibitory concentration of antibiotic, Test Organism 11&system=Staphylococcus epidermidis&item= CNC1C(=O)NC2C(=O)NC(C(=O)NC3C(=O)NC4C(=O)NC(C(=O)NC(C(=O)O)c5cc(O)cc(OC6OC(CO)C(O)C(O)C6O)c5-c5cc4ccc5O)C(O)c4ccc(c(Cl)c4)Oc4cc3cc(c4OC3OC(C(=O)O)C(O)C(O)C3NC(=O)CCCCCCCCC(C)C)Oc3ccc(cc3)C2O)c2cc(cc(O)c2Cl)Oc2cc1ccc2O (stereo not shown) [Compound 2p, AAJ-271 C1, reference compound]
25000

GET /values?readout=minimum inhibitory concentration of antibiotic, Test Organism 11&system=Staphylococcus epidermidis&item= CNC1C(=O)NC2C(=O)NC(C(=O)NC3C(=O)NC4C(=O)NC(C(=O)NC(C(N)=O)c5cc(O)cc(O)c5-c5cc4ccc5O)C(O)c4cc(Cl)c(c(Cl)c4)Oc4cc3cc(c4O)Oc3ccc(cc3Cl)C2O)c2cc(cc(O)c2Cl)Oc2cc1ccc2O (stereo not shown) [Compound 2c, Ardacin aglycone amide]
400

GET /values?readout=minimum inhibitory concentration of antibiotic, Test Organism 11&system=Staphylococcus epidermidis&item= CNC1C(=O)NC2C(=O)NC(C(=O)NC3C(=O)NC4C(=O)NC(C(=O)NC(C(=O)NCCN)c5cc(O)cc(O)c5-c5cc4ccc5O)C(O)c4cc(Cl)c(c(Cl)c4)Oc4cc3cc(c4O)Oc3ccc(cc3Cl)C2O)c2cc(cc(O)c2Cl)Oc2cc1ccc2O (stereo not shown) [Compound 2e, Ardacin aglycone-(2-aminoethyl amide)]
100

GET /values?readout=minimum inhibitory concentration of antibiotic, Test Organism 11&system=Staphylococcus epidermidis&item= CNC1C(=O)NC2C(=O)NC(C(=O)NC3C(=O)NC4C(=O)NC(C(=O)NC(C(N)=O)c5cc(O)cc(OC6OC(CO)C(O)C(O)C6O)c5-c5cc4ccc5O)C(O)c4ccc(c(Cl)c4)Oc4cc3cc(c4OC3OC(C(N)=O)C(O)C(O)C3NC(=O)CCCCCCCCC(C)C)Oc3ccc(cc3)C2O)c2cc(cc(O)c2Cl)Oc2cc1ccc2O (stereo not shown) [Compound 2q, AAJ-271 C1 diamide]
12500

GET /values?readout=minimum inhibitory concentration of antibiotic, Test Organism 11&system=Staphylococcus epidermidis&item= CCCCCCCCCC(=O)NC1C(Oc2c3cc4cc2Oc2c(Cl)cc(cc2Cl)C(O)C2NC(=O)C(NC(=O)C4NC(=O)C4NC(=O)C(NC(=O)C(NC)c5ccc(O)c(c5)Oc5cc(O)c(Cl)c4c5)C(O)c4ccc(c(Cl)c4)O3)c3ccc(O)c(c3)-c3c(OC4OC(CO)C(O)C(O)C4O)cc(O)cc3C(C(N)=O)NC2=O)OC(C(N)=O)C(O)C1O (stereo not shown) [Compound 2j, Ardacin A diamide]
6300

GET /values?readout=minimum inhibitory concentration of antibiotic, Test Organism 11&system=Staphylococcus epidermidis&item= CNC1C(=O)NC2C(=O)NC(C(=O)NC3C(=O)NC4C(=O)NC(C(=O)NC(C(=O)NCCO)c5cc(O)cc(O)c5-c5cc4ccc5O)C(O)c4cc(Cl)c(c(Cl)c4)Oc4cc3cc(c4O)Oc3ccc(cc3Cl)C2O)c2cc(cc(O)c2Cl)Oc2cc1ccc2O (stereo not shown) [Compound 2d, Ardacin aglycone-(2-hydroxyethyl amide)]
800

GET /values?readout=minimum inhibitory concentration of antibiotic, Test Organism 11&system=Staphylococcus epidermidis&item= CNC1C(=O)NC2C(=O)NC(C(=O)NC3C(=O)NC4C(=O)NC(C(=O)NC(C(=O)NCCN(C)C)c5cc(O)cc(O)c5-c5cc4ccc5O)C(O)c4cc(Cl)c(c(Cl)c4)Oc4cc3cc(c4O)Oc3ccc(cc3Cl)C2O)c2cc(cc(O)c2Cl)Oc2cc1ccc2O (stereo not shown) [Compound 2g]
200

GET /values?readout=minimum inhibitory concentration of antibiotic, Test Organism 11&system=Staphylococcus epidermidis&item= CCCCCCCCCC(=O)NC1C(Oc2c3cc4cc2Oc2c(Cl)cc(cc2Cl)C(O)C2NC(=O)C(NC(=O)C4NC(=O)C4NC(=O)C(NC(=O)C(NC)c5ccc(O)c(c5)Oc5cc(O)c(Cl)c4c5)C(O)c4ccc(c(Cl)c4)O3)c3ccc(O)c(c3)-c3c(OC4OC(CO)C(O)C(O)C4O)cc(O)cc3C(C(=O)NN)NC2=O)OC(C(=O)NN)C(O)C1O (stereo not shown) [Compound 2k, Ardacin A dihydrazide]
12500

Hey, can you go through the list below and give me minimum inhibitory concentration of antibiotic, Test Organism 11 for every item?
1. CNC1C(=O)NC2C(=O)NC(C(=O)NC3C(=O)NC4C(=O)NC(C(=O)NC(C(=O)NCCCCCCN)c5cc(O)cc(O)c5-c5cc4ccc5O)C(O)c4cc(Cl)c(c(Cl)c4)Oc4cc3cc(c4O)Oc3ccc(cc3Cl)C2O)c2cc(cc(O)c2Cl)Oc2cc1ccc2O (stereo not shown) [Compound 2h, Ardacin aglycone-(6-aminohexyl amide)]
2. CNC1C(=O)NC2C(=O)NC(C(=O)NC3C(=O)NC4C(=O)NC(C(=O)NC(C(N)=O)c5cc(O)cc(OC6OC(CO)C(O)C(O)C6O)c5-c5cc4ccc5O)C(O)c4cc(Cl)c(c(Cl)c4)Oc4cc3cc(c4O)Oc3ccc(cc3Cl)C2O)c2cc(cc(O)c2Cl)Oc2cc1ccc2O (stereo not shown) [Compound 2n, Ardacin mannosylaglycone amide]
3. CNC1C(=O)NC2C(=O)NC(C(=O)NC3C(=O)NC4C(=O)NC(C(=O)NC(C(=O)O)c5cc(O)cc(OC6OC(CO)C(O)C(O)C6O)c5-c5cc4ccc5O)C(O)c4cc(Cl)c(c(Cl)c4)Oc4cc3cc(c4O)Oc3ccc(cc3Cl)C2O)c2cc(cc(O)c2Cl)Oc2cc1ccc2O (stereo not shown) [Compound 2b, Ardacin mannosylaglycone, reference compound]

1. 200
2. 6300
3. 25000

All figures here come from patent US4882313A.
